assay: Multi-component pharmacokinetics in rat plasma after oral administration of RB, RPA or RB-RPA extracts (UPLC-HRMS, non-compartmental analysis); type: in vivo, Sprague-Dawley rats; conditions: rat plasma, oral RB single extract 45 g-herb/kg, mean ± SD, n = 7
Below, each entry is listed with its recorded t1/2.

Below, 3 compounds whose answers are already recorded.
C[C@H]1O[C@@H](O[C@H]2CC[C@@]3(C)[C@@H](CC[C@]4(C)[C@@H]3C=CC3=C5CC(C)(C)CC[C@]5(CO)[C@H](O)C[C@]34C)[C@]2(C)CO)[C@H](O)[C@@H](O[C@@H]2O[C@H](CO)[C@@H](O)[C@H](O)[C@H]2O)[C@H]1O [Saikosaponin B2]; 2.70 ± 1.52 h
CC1(C)CC[C@]23CO[C@@]4(C=C[C@@H]5[C@@]6(C)CC[C@H](O)C(C)(C)[C@@H]6CC[C@@]5(C)[C@]4(C)C[C@@H]2O)[C@@H]3C1 [Saikogenin E]; 3.40 ± 1.47 h
C[C@H]1O[C@@H](O[C@H]2CC[C@@]3(C)[C@@H](CC[C@]4(C)[C@@H]3C=C[C@]35OC[C@@]6(CCC(C)(C)C[C@H]63)[C@H](O)C[C@]54C)[C@]2(C)CO)[C@H](O)[C@@H](O[C@@H]2O[C@H](CO)[C@@H](O)[C@H](O)[C@H]2O)[C@H]1O [Saikosaponin D]; 2.01 ± 0.34 h

Input line: Would you kindly share the measured t1/2 for CC1(C)CC[C@]23CO[C@@]4(C=C[C@@H]5[C@@]6(C)CC[C@H](O)[C@@](C)(CO)[C@@H]6CC[C@@]5(C)[C@]4(C)C[C@@H]2O)[C@@H]3C1 [Saikogenin F] ?
Output line: 4.01 ± 1.88 h
